assay_comment: Time for hydrolysis of half the starting material was studied at a temperature of 27 degrees celsius and aqueous 50 mM phosphate (pH 7.6) as medium.
Type: ADME
experimental_conditions: phosphate buffer
readout_type: half-life

Request: Tell me half-life reported for Cc1cn([C@H]2C[C@H](O)[C@@H](COP(=O)(Oc3ccc([N+](=O)[O-])cc3)Oc3ccc([N+](=O)[O-])cc3)O2)c(=O)[nH]c1=O
Result: 49.8 min
